Experiment: Peptide solubility by turbidity of peptide suspensions at 550 nm
Conditions: Experiment #2; score 1 to 5
No end group written: not given here.
metricName: Solubility (/5)
When you answer, write just the number.

Input line: State the recorded Solubility (/5) for this entry: FAEAFKEAVKDYFAKFWDPAAEKLKEAVKDYFAKLWD [1 SB Disruption, FAEAFKEAVKDYFAKFWD P AAEKLKEAVKDYFAKLWD]
Output line: 5

Input line: State the recorded Solubility (/5) for this entry: FVEKFKEVAKDYFVKFWDPVVEKLKEVAKDYFVKLWD [Ala/Val Switch, FVEKFKEVAKDYFVKFWD P VVEKLKEVAKDYFVKLWD]
Output line: 5

Every entry's value here was drawn from patent US20210253643A1.
